- method summary: Example 18 cynomolgus monkey PK study (SC and IM)
- Type: in vivo, cynomolgus monkeys
- measurement setup: male, cynomolgus monkey, plasma, intramuscular, 20 mg/kg equivalent of EFdA, IM 20 mg/kg equivalent of EFdA; Monkey 2002; 22 days; read-out: Example 18 plasma concentrations

{"smiles text": "C#C[C@]1(COC(=O)CCCCCCCCC)O[C@@H](n2cnc3c(N)nc(F)nc32)C[C@@H]1OC(=O)CCCCCCCCC", "result units": "ng/mL", "concentration at 22 days": 0.114}

###

- method summary: Example 18 cynomolgus monkey PK study (SC and IM)
- Type: in vivo, cynomolgus monkeys
- measurement setup: male, cynomolgus monkey, plasma, sc, 20 mg/kg, SC 20 mg/kg equivalent of EFdA; Monkey 1002 (column 3); 0.042 days; read-out: Example 18 plasma concentrations

{"compound": "C#C[C@]1(COC(=O)CCCCCCCCC)O[C@@H](n2cnc3c(N)nc(F)nc32)C[C@@H]1OC(=O)CCCCCCCCC [Example 18]", "concentration at 0.042 days": "0.179 ng/mL"}
